Data provenance: patent US20240343814A1

- TARGET SYSTEM: Recombinant human his-tagged IGF 1R extracellular domain protein (human) (UniProt P08069)
- ASSAY PROCEDURE: SPR, captured IgG, IGF-1R ECD-his analyte, dissociation pH 6
pKd: −log10 of the molar value.
Parameter threshold = 9. Response is Condition met when pKd meets or exceeds it, else Condition not met.

These solved cases illustrate the format of a correct answer.
binder="VRDN-02539 (antibody, V domains shown) VH: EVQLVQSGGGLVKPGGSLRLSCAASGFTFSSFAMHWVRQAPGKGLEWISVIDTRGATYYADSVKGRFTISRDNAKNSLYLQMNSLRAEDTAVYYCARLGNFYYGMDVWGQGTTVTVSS VL: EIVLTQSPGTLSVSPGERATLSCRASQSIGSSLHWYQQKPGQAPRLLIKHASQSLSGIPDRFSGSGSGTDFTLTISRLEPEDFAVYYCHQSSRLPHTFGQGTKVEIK" class_name="Condition not met"
binder="VRDN-02534 (antibody, V domains shown) VH: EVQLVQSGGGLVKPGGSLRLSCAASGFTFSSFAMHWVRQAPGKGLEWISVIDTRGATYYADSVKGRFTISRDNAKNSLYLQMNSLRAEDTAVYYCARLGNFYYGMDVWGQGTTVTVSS VL: EIVLTQSPGTLSVSPGERATLSCRASQSIHSSLHWYQQKPGQAPRLLIKYASQSLSGIPDRFSGSGSGTDFTLTISRLEPEDFAVYYCHQSSRLPHTFGQGTKVEIK" class_name="Condition met"
binder="VRDN-02525 (antibody, V domains shown) VH: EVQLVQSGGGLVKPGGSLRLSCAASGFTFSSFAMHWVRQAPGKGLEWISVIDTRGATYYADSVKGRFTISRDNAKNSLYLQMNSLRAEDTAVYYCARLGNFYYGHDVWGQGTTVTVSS VL: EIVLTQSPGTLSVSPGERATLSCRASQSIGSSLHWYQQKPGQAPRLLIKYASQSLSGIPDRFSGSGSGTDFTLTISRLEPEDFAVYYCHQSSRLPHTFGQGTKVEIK" class_name="Condition not met"
binder="VRDN-02526 (antibody, V domains shown) VH: EVQLVQSGGGLVKPGGSLRLSCAASGFTFSSFAMHWVRQAPGKGLEWISVIDTRGATYYADSVKGRFTISRDNAKNSLYLQMNSLRAEDTAVYYCARLGNFYYGMHVWGQGTTVTVSS VL: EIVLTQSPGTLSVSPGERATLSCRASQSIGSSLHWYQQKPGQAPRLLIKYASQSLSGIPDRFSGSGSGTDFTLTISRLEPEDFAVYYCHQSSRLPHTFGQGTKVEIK" class_name="Condition met"
binder="VRDN-02516 (antibody, V domains shown) VH: EVQLVQSGGGLVKPGGSLRLSCAASGFTFSSFAMHWVRQAPGKGLEWISVIDTRGATYYADSVKGRFTISRDNAKNSLYLQMNSLRAEDTAVYYCHRLGNFYYGMDVWGQGTTVTVSS VL: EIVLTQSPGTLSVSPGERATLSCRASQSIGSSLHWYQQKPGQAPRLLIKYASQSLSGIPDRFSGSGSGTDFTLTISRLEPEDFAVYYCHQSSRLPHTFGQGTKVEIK" class_name="Condition not met"

Input line: Would you say VRDN-02537 (antibody, V domains shown) VH: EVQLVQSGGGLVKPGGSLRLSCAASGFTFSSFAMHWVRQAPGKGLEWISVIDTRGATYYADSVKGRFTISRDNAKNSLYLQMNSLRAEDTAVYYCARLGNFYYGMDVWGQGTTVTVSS VL: EIVLTQSPGTLSVSPGERATLSCRASQSIGSSHHWYQQKPGQAPRLLIKYASQSLSGIPDRFSGSGSGTDFTLTISRLEPEDFAVYYCHQSSRLPHTFGQGTKVEIK shows pKd at minimum 9?
Output line: Condition met

Input line: Determine whether measured pKd meets or exceeds 9 for VRDN-02518 (antibody, V domains shown) VH: EVQLVQSGGGLVKPGGSLRLSCAASGFTFSSFAMHWVRQAPGKGLEWISVIDTRGATYYADSVKGRFTISRDNAKNSLYLQMNSLRAEDTAVYYCARHGNFYYGMDVWGQGTTVTVSS VL: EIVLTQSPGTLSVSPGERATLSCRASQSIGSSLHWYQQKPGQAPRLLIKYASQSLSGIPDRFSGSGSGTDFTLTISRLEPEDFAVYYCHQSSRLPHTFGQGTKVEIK
Output line: Condition met

Input line: Evaluate VRDN-02571 (antibody, V domains shown) VH: EVQLVQSGGGLVKPGGSLRLSCAASGFTFSSFAMHWVRQAPGKGLEWISVIHTRGATYYADSVKGRFTISRDNAKNSLYLQMNSLRAEDTAVYYCARLGNFYYGHDVWGQGTTVTVSS VL: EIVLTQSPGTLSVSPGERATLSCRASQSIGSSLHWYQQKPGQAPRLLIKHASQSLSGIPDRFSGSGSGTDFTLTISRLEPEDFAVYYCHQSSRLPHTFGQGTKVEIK : pKd at minimum 9?
Output line: Condition not met
